Values compiled from patent US20180162928A1.

Target: human serum albumin (human) (UniProt P02768)
Sequence (P02768 25-609 limits assumed): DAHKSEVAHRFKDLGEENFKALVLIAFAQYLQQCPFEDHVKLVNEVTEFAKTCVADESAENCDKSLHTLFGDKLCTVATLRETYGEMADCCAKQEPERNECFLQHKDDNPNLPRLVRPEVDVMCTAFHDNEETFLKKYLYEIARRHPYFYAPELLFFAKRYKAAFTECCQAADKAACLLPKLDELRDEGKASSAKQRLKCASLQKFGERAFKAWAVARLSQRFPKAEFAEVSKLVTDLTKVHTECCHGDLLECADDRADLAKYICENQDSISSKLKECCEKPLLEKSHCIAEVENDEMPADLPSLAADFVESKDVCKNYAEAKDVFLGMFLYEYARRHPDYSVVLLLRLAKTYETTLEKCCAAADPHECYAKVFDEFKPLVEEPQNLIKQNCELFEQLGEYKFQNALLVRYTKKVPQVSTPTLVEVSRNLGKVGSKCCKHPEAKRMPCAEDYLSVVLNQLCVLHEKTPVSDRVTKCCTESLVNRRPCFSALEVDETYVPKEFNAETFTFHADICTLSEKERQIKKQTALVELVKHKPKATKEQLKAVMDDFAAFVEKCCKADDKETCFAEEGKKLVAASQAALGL
Test: ELISA, lysate on plate-bound antigen
Please provide measured ELISA HSA (RSU) for the entries that follow.
Kindly provide the numeric value in RSU only, without the unit symbol.

Entry under review: ISOP121BR5P1G3 (designed binder, not shown: small tags and cut ends, FN3 domain; E. coli lysate in the ELISA) LPAPKNLVVSRVTEDSARLSWKQRTSFHFDSFLIQYQESEKVGEAIVLTVPGSERSYDLTGLKPGTEYTVSIYGVPFWQQWQPESNPLSAIFTT . Reported ELISA HSA (RSU)?
640

Entry under review: ISOP194AR9P1C5 (designed binder, not shown: small tags and cut ends, FN3 domain; E. coli lysate in the ELISA) LPAPKNLVVSRVTEDSARLSWLRDFNGRAFFDSFLIQYQESEKVGEAIVLTVPGSERSYDPTGLKPGTEYTVSIYGVFITWIHVRSNPLSAIFTT . Reported ELISA HSA (RSU)?
1040

Entry under review: ISOP121HR5P1F2 (designed binder, not shown: small tags and cut ends, FN3 domain; E. coli lysate in the ELISA) LPAPKNLVVSRVTEDSARLSWTAPDAAFDSFTILYGETYSGGEAIVLTVPGSERSYDLTGLKPGTEYVVYIFGVKGGKWSRPLSAIFTT . Reported ELISA HSA (RSU)?
640

Entry under review: ISOP121BR5P1B5 (designed binder, not shown: small tags and cut ends, FN3 domain; E. coli lysate in the ELISA) LPAPKNLVVSRVTEDSARLSWRKQEQYFDSFLIQYQESEKVGEAIVLTVPGSERSYDLTGLKPGTEYTVSIYGVYQRGYHNWFSNPLSAIFTT . Reported ELISA HSA (RSU)?
400
